B1: Zinc finger homeobox protein 3, residues 2643 to 2698; numbered along this chain, Q15911 (parent)
chain: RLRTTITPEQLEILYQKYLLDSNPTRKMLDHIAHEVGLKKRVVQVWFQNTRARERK

variants of: B1; test: abundance fitness (aPCA) (normalised: wild type 0, dead -1); higher = more abundant; growth selection in yeast, the domain comes from the species named; details: Homo sapiens
Hi, to clarify the labels: met covers abundance fitness from -0.4 upward, not met covers anything below -0.4.

Worked set:
{"Var": "Q10E", "Assigned Category": "not met"}
{"Var": "L38N", "Assigned Category": "not met"}

Q) Threshold query (abundance fitness >= -0.4) on K39E
A) met

Q) Threshold query (abundance fitness >= -0.4) on E12A
A) met

Q) Threshold query (abundance fitness >= -0.4) on H34M
A) met

Q) Threshold query (abundance fitness >= -0.4) on R53E
A) met

Q) Threshold query (abundance fitness >= -0.4) on L11F
A) met

Data provenance: the Human Domainome abundance scans (Beltran et al. 2025)
